target: T1, c-erbB-2 ECD with a Ser-Gly-His6 C-terminal fusion (UniProt P04626 23-652); test: SPR BIAcore
T1 construct: extracellular domain; Expressed from CHO cells, IMAC purified; coupled to a CM5 chip, coated on plates, or biotinylated with NHS-LC-biotin; also called c-erbB-2 extracellular domain; biotinylated c-erbB-2 ECD
Checkbox rule: koff lower than 0.01 s⁻¹ = Satisfied; koff not lower than 0.01 s⁻¹ = Not satisfied.

{"binder": "C6.5K100gA (scFv, C6.5 VH CDR3 scan mutant; Kabat numbering) scFv: QVQLLQSGAELKKPGESLKISCKGSGYSFTSYWIAWVRQMPGKGLEYMGLIYPGDSDTKYSPSFQGQVTISVDKSVSTAYLQWSSLKPSDSAVYFCARHDVGYCSSSNCAAWPEYFQHWGQGTLVTVSSGGGGSGGGGSGGGGSQSVLTQPPSVSAAPGQKVTISCSGSSSNIGNNYVSWYQQLPGTAPKLLIYGHTNRPAGVPDRFSGSKSGTSASLAISGFRSEDEADYYCAAWDDSLSGWVFGGGTKLTVLG", "classification": "Satisfied"}
{"binder": "C6.5S100aA (scFv, C6.5 VH CDR3 scan mutant; Kabat numbering) scFv: QVQLLQSGAELKKPGESLKISCKGSGYSFTSYWIAWVRQMPGKGLEYMGLIYPGDSDTKYSPSFQGQVTISVDKSVSTAYLQWSSLKPSDSAVYFCARHDVGYCASSNCAKWPEYFQHWGQGTLVTVSSGGGGSGGGGSGGGGSQSVLTQPPSVSAAPGQKVTISCSGSSSNIGNNYVSWYQQLPGTAPKLLIYGHTNRPAGVPDRFSGSKSGTSASLAISGFRSEDEADYYCAAWDDSLSGWVFGGGTKLTVLG", "classification": "Not satisfied"}
{"binder": "C6.5V97A (scFv, C6.5 VH CDR3 scan mutant; Kabat numbering) scFv: QVQLLQSGAELKKPGESLKISCKGSGYSFTSYWIAWVRQMPGKGLEYMGLIYPGDSDTKYSPSFQGQVTISVDKSVSTAYLQWSSLKPSDSAVYFCARHDAGYCSSSNCAKWPEYFQHWGQGTLVTVSSGGGGSGGGGSGGGGSQSVLTQPPSVSAAPGQKVTISCSGSSSNIGNNYVSWYQQLPGTAPKLLIYGHTNRPAGVPDRFSGSKSGTSASLAISGFRSEDEADYYCAAWDDSLSGWVFGGGTKLTVLG", "classification": "Not satisfied"}
{"binder": "C6.5N100dA (scFv, C6.5 VH CDR3 scan mutant; Kabat numbering) scFv: QVQLLQSGAELKKPGESLKISCKGSGYSFTSYWIAWVRQMPGKGLEYMGLIYPGDSDTKYSPSFQGQVTISVDKSVSTAYLQWSSLKPSDSAVYFCARHDVGYCSSSACAKWPEYFQHWGQGTLVTVSSGGGGSGGGGSGGGGSQSVLTQPPSVSAAPGQKVTISCSGSSSNIGNNYVSWYQQLPGTAPKLLIYGHTNRPAGVPDRFSGSKSGTSASLAISGFRSEDEADYYCAAWDDSLSGWVFGGGTKLTVLG", "classification": "Not satisfied"}
{"binder": "C6.5S100cA (scFv, C6.5 VH CDR3 scan mutant; Kabat numbering) scFv: QVQLLQSGAELKKPGESLKISCKGSGYSFTSYWIAWVRQMPGKGLEYMGLIYPGDSDTKYSPSFQGQVTISVDKSVSTAYLQWSSLKPSDSAVYFCARHDVGYCSSANCAKWPEYFQHWGQGTLVTVSSGGGGSGGGGSGGGGSQSVLTQPPSVSAAPGQKVTISCSGSSSNIGNNYVSWYQQLPGTAPKLLIYGHTNRPAGVPDRFSGSKSGTSASLAISGFRSEDEADYYCAAWDDSLSGWVFGGGTKLTVLG", "classification": "Not satisfied"}
